# Tested on: HOP-62
# testMethodNotes: NCI tumour cell line growth inhibition, 48 h
The source made the active and inactive calls. Cut-off read from the data, not from the text of the source: active = GI50 up to about 1.1 µM and inactive = higher.

compound: COC(=O)C1Cc2cc3c(cc2C1=O)CCC3 (centres undefined)
targetEntity: HOP-62
GI50: > 100 µM (inactive)
//
compound: C#C/C=C\CCCC/C=C\C#CC#CCCCC#CC#C[C@H](COS(=O)(=O)O)OS(=O)(=O)O
targetEntity: HOP-62
GI50: > 100 µM (inactive)
//
compound: Clc1ccc2c(NCCCCN3OC3c3ccccc3)ccnc2c1 (centres undefined)
targetEntity: HOP-62
GI50: 4.75 µM (inactive)
//
compound: CC1OC2OC3C(OCC(O)C3O)OC(=O)[C@]34CCC(C)(C)CC3C3=CCC5[C@@]6(C)C[C@H](O)[C@H](OC7OC(CO)C(O)C(O)C7OC7OCC(OC(=O)CC(C)(O)CC(=O)OC1C(O)C2O)C(O)C7O)[C@@](C)(CO)C6CC[C@@]5(C)[C@]3(C)CC4 (some centres undefined)
targetEntity: HOP-62
GI50: 2.75 µM (inactive)

----------
# System: SF-295
# testMethodNotes: NCI tumour cell line growth inhibition, 48 h
Activity calls are given as the source filed them. No stated cut-off is given here; in the data, active = GI50 up to about 1.1 µM and inactive = higher.
Items are presented alongside their recorded GI50.

molecule: COC(=O)Cc1nc2ccccc2o1
targetEntity: SF-295
GI50: 41.1 µM (inactive)
--
molecule: O=S(=O)(O)c1cc(/N=[N+](\[O-])c2cc(S(=O)(=O)O)c3ccccc3c2)cc2ccccc12
targetEntity: SF-295
GI50: 35.6 µM (inactive)
--
molecule: CCOC(=O)C(c1ccsc1)P(=O)(OCC)OCC (configuration not stated)
targetEntity: SF-295
GI50: 17.3 µM (inactive)
--
molecule: COc1ccc(N(C)S(=O)(=O)c2ccccc2)cc1
targetEntity: SF-295
GI50: > 100 µM (inactive)
--
molecule: c1cc2nnnn2nc1N1CCCC1
targetEntity: SF-295
GI50: > 100 µM (inactive)
--
molecule: O=C1c2ccccc2C(=O)N1c1ccc(Cc2ccc(N3C(=O)c4ccccc4C3=O)cc2)cc1
targetEntity: SF-295
GI50: > 50.7 µM (inactive)
--
molecule: C(#CP(c1ccccc1)c1ccccc1)P(C#CP(c1ccccc1)c1ccccc1)c1ccccc1
targetEntity: SF-295
GI50: 5.9 µM (inactive)
--
molecule: Nc1nc(N)c(C2=CCNCC2)c(=O)[nH]1
targetEntity: SF-295
GI50: > 100 µM (inactive)
--
molecule: CC(=O)NC1=C(OS(=O)(=O)c2ccc(C)cc2)CN(C)C1=O
targetEntity: SF-295
GI50: 4.1 µM (inactive)
--
molecule: CC1NC(=O)CC(c2ccccc2)N(N=O)C1c1ccccc1 (configuration not stated)
targetEntity: SF-295
GI50: 30.7 µM (inactive)
--
molecule: c1csc(C(NC2=NCCO2)C2CC2)c1 (configuration not stated)
targetEntity: SF-295
GI50: > 100 µM (inactive)
--
molecule: CC1(O)CCC(C(C)(C)O)CC1 (configuration not stated) [TERPIN]
targetEntity: SF-295
GI50: > 100 µM (inactive)

----------
# Test system: OVCAR-3
# testMethodNotes: NCI tumour cell line growth inhibition, 48 h
Active and inactive are the calls of the source. No stated cut-off is given here; in the data, active = GI50 up to about 1.1 µM and inactive = higher.
property: GI50

compound: O=C(NCCCCCCNCc1cccc2ccccc12)Nc1cccc2ccccc12
property: GI50
assayResult: > 100 µM (inactive)
--
compound: CC1=C2O[B-](c3ccccc3)(c3ccccc3)[O+]=C2C=CN1
property: GI50
assayResult: 2 µM (inactive)
--
compound: O=C(NC(N1CCN(c2cc3c(cc2F)c(=O)c(C(=O)O)cn3C2CC2)CC1)(C(F)(F)F)C(F)(F)F)c1ccccc1
property: GI50
assayResult: 43.5 µM (inactive)
--
compound: C[C@@H]1CC[C@@]2(OC1)O[C@H]1C[C@H]3[C@@H]4CC[C@H]5C[C@@H](OC6OC(CO)C(OC7OC(CO)C(O)C(OC8OCC(O)C(O)C8O)C7OC7OC(CO)C(O)C(O)C7O)C(O)C6O)[C@H](O)C[C@]5(C)[C@H]4CC[C@]3(C)[C@H]1[C@@H]2C (stereo partly drawn)
property: GI50
assayResult: 2.88 µM (inactive)
--
compound: CCc1cc2c(c3c1CCCC3)CC1(Cc3ccc(C(=O)OC)cc3C1)C2 (stereo not drawn)
property: GI50
assayResult: > 100 µM (inactive)
--
compound: CC1(C)N=C(N)N=C(N)N1c1cccc(CSc2ccccc2)c1
property: GI50
assayResult: 0.991 µM (active)
--
compound: C=C1C/C(=C/C)C(=O)O[C@@H]2CCN3CC=C(COC(=O)[C@]1(C)O)[C@H]23
property: GI50
assayResult: > 100 µM (inactive)
--
compound: Nc1ncnc2c1ccn2COC(CO)CO
property: GI50
assayResult: > 100 µM (inactive)
--
compound: CC(CC(=O)N1C2CC3CCC2(CS1(=O)=O)C3(C)C)[Si](C)(C)C (stereo not drawn)
property: GI50
assayResult: > 100 µM (inactive)
--
compound: CN(C)CCNC(=O)c1cccc2c(NCC(=O)O)c3ccccc3nc12
property: GI50
assayResult: 19.9 µM (inactive)
--
compound: O=C(O)CC1(C(=O)O)CCCCC1
property: GI50
assayResult: > 100 µM (inactive)
--
compound: O=[N+]([O-])c1cc2[nH]nnc2c2nonc12
property: GI50
assayResult: 33.5 µM (inactive)
--
compound: CC(C)C[P+](c1ccccc1)(c1ccccc1)c1ccccc1
property: GI50
assayResult: 2.31 µM (inactive)
--
compound: CCCCCCCCCCCCCCCCCCNc1ccn(C2OC(COP(=O)(O)OCCCCCCCCCCCCCCCC)C(O)C2O)c(=O)n1 (stereo not drawn)
property: GI50
assayResult: > 100 µM (inactive)
--
compound: C=CCN1C(=O)CC(=O)N(NC2=NNC3(C(=O)N2)c2ccccc2-c2ccccc23)C1=S
property: GI50
assayResult: 28.4 µM (inactive)
--
compound: COc1cc(C[C@@]2(C)[C@@H]3CCC[C@H](CO)[C@@]3(C)CC[C@@H]2C)c(Cl)c(OC)c1
property: GI50
assayResult: 15.3 µM (inactive)
--
compound: COc1ccc(CC2COc3cc(OC)cc(OC)c3C2=O)cc1 (stereo not drawn)
property: GI50
assayResult: 18.9 µM (inactive)
--
compound: CC1(C)CC(=O)C(/C(=N/NC(=S)NN)C(=O)Nc2nc3ccc([N+](=O)[O-])cc3s2)C(=O)C1
property: GI50
assayResult: 67.9 µM (inactive)

----------
# System: 786-0
# testMethodNotes: NCI tumour cell line growth inhibition, 48 h
The source made the active and inactive calls. No stated cut-off is given here; in the data, active = GI50 up to about 1.1 µM and inactive = higher.
Classes used: active, inactive

compound: CN1Cc2c(nc(-c3ccccc3)c[n+]2[O-])N(C)C1
classLabel: inactive
//
compound: CCCCCCCC(=O)OCC(C[As](=O)(O)O)OC(=O)CCCCCCC (configuration not stated)
classLabel: inactive
//
compound: O=C1C(c2ccc([N+](=O)[O-])cc2)=C(Cl)C(=O)c2c(O)cccc21
classLabel: inactive
//
compound: CCOC(=O)/C=C(\C(=O)OCC)n1ccc(=O)n(CC(=O)OCC)c1=O
classLabel: inactive
//
compound: CN(C)CCCNC(=O)c1cn2c(ccc3sc4ccccc4c(=O)c32)n1
classLabel: inactive
//
compound: COC1OC2COC(=O)c3cc(O)c(O)c(O)c3-c3c(cc(O)c(O)c3O)C(=O)OC2C(O)C1O (configuration not stated)
classLabel: inactive
//
compound: CCc1c(Cl)c(C)cc(O)c1Cl
classLabel: inactive
//
compound: COc1ncnc2c(NC3OC(CO)C(O)C3O)ncnc12 (configuration not stated)
classLabel: active
//
compound: Cc1ccccc1NC(=O)c1cc(-c2ccc([N+](=O)[O-])cc2)nc(S)n1
classLabel: inactive
//
compound: Cc1ccsc1/C=N/Nc1nncc2ccccc12
classLabel: inactive
//
compound: O=C(NCCCCCCNCc1cccc2ccccc12)Nc1cccc2ccccc12
classLabel: inactive
//
compound: CC(C)(C)OC(=O)NCC(O)CNC(=O)OC(C)(C)C
classLabel: inactive
//
compound: Cc1ccc(S(=O)(=O)NCC2CCCCC2=O)cc1 (configuration not stated)
classLabel: inactive
//
compound: COC(=O)CCC(=O)NC1C2CC3CC(C2)CC1C3 (configuration not stated)
classLabel: inactive
//
compound: Brc1cc2c(cc1Br)CN(c1ccccc1)C2
classLabel: inactive
//
compound: c1cc2c(c(NC3=NCCO3)c1)CCC2
classLabel: inactive
//
compound: COC(=O)CC1CN(C(=O)OCc2ccccc2)C(C)(C)O1 (configuration not stated)
classLabel: inactive
//
compound: c1ccc(C2OC3(CCC[C@H]4C[C@H]43)O[C@H]2c2ccccc2)cc1 (some centres not stated)
classLabel: inactive
//
compound: CCN(CC)CCC(=O)c1ccc(Oc2ccc(Cl)cc2)cc1
classLabel: inactive
//
compound: CCOC(=O)C1=CN(C(=O)c2ccccc2)CCC1Cc1ccccc1 (configuration not stated)
classLabel: inactive
//
compound: CCOC(=O)N1C2C=C(C)C(C3C(C)C(=O)N31)N(C(=O)c1ccccc1)O2 (configuration not stated)
classLabel: inactive
//
compound: Cc1c[nH]c2c(O)cc3c(c12)[C@H](CCl)CN3C(=O)c1cc2cc(NC(=O)Nc3ccc4[nH]c(C(=O)N5C[C@@H](CCl)c6c5cc(O)c5[nH]cc(C)c65)cc4c3)ccc2[nH]1 [BIZELESIN]
classLabel: inactive
